System: Plasmodium falciparum
method-summary: In vitro relative potency against Plasmodium falciparum Sierra Leone D6
Format: functional
recorded-endpoint: Relative activity

Answered cases to consult:
## Task Value lookup for Relative activity; key = CO[C@]1(C)CC[C@H]2[C@H](C)CCC[C@]2(C=O)OO1
## Result 0.001

## Task Look up Relative activity: C[C@@H]1CC[C@H]2[C@](C)(Br)[C@@H](Nc3ccccn3)O[C@@H]3O[C@@]4(C)CC[C@@H]1[C@]32OO4
## Result 0.02

## Task Name the reported Relative activity value associated with the molecule CO[C@H]1O[C@@]2(C)CC[C@H]3CCCC[C@]31OO2
## Result 0.11

## Task Suppose we examine the molecule C[C@]12CC[C@H]3CCCC[C@@]3(OO1)[C@H](OCc1ccccc1)O2 ; what Relative activity value has been reported?
## Result 0.03

## Task What does the data say about its Relative activity? Entry: C[C@H]1CO[C@@H]2O[C@@]3(C)CC[C@H]4CCC[C@@H]1[C@]42OO3
## Result 4.02

## Task Recorded Relative activity for C[C@@H]1CC[C@H]2[C@](C)(Br)[C@@H](Nc3ncccn3)O[C@@H]3O[C@@]4(C)CC[C@@H]1[C@]32OO4 , please?
## Result 0.01

## Task What value of measured Relative activity is listed for CCCC[C@H]1C(=O)O[C@@H]2OC(C)(C)OO[C@@]23CCCC[C@@H]13 ?
## Result 0.1

// next entry
## Task Any idea what its Relative activity is? The molecule is CO[C@@H]1O[C@@]2(C)CC[C@H]3CCCC[C@]31OO2
## Result 0.13
